system: MDA-MB-231 cells; assay: Vacuolation of MDA-MB-231 cells caused by inhibition of compounds on PIKfyve (microscopy); format: cell-based; conditions: MDA-MB-231 cells, 1 μM, 48 h; note: key: '+' represents the degree of vacuolation; ++: more '+' indicates more obvious vacuolation; +++: more '+' indicates more obvious vacuolation; ++++: more '+' indicates more obvious vacuolation; '−' represents no vacuolation

{"columns": ["molecule", "degree of vacuolation, 1 μM, 48 h"],
 "data": [
  ["Cc1ccc(C(=O)Nc2cc(C(F)(F)F)cc(C(F)(F)F)c2)cc1Nc1cc(-c2cccnc2)nc2[nH]ccc12 [I-a-31]", "−"],
  ["Cc1cc(NC(=O)c2ccccc2N)ccc1Nc1nc(-c2cccnc2)c2[nH]ccc2n1 [V-c-25]", "−"],
  ["Cc1ccc(NC(=O)c2cccc(C(F)(F)F)c2)cc1Nc1cc(-c2ccncc2)nc2c1ccn2C [I-b-2]", "−"],
  ["O=C(Nc1cccc(C(F)(F)F)c1)c1ccc(F)c(Nc2cc(-c3cccnc3)nc3[nH]ccc23)c1 [I-a-38]", "+"],
  ["Cc1ccc(NC(=S)Nc2cccc(C(F)(F)F)c2)cc1Nc1cc(-c2cccnc2)nc2[nH]ccc12 [I-a-40]", "+"],
  ["Cc1ccc(C(=O)Nc2cccc(C(F)(F)F)c2)cc1Nc1nc(-c2ccncc2)nc2[nH]cnc12 [IV-a-2]", "++"],
  ["O=C(Nc1cccc(C(F)(F)F)c1)c1cccc(Nc2cc(-c3cccnc3)nc3[nH]ccc23)c1 [I-a-30]", "+"]
]}
